# Target desc: Histone deacetylase
# Particulars: hela
# rule met = IC50 below 400 nM (exclusive); rule not met = IC50 at/above 400 nM

# Smiles text, Group
measured = [
    ("CC(C)c1cc(C(=O)Nc2cccc(NC(=O)CCCCCCC(=O)NO)c2)c(O)cc1O", "rule met"),
]

Query: Hello, I'm reviewing records and need to know if IC50 of `CCN(C(=O)c1cc(C(C)C)c(O)cc1O)c1cccc(NC(=O)CCCCCCC(=O)NO)c1` is below 400 nM. Could you check?
Result: rule met

Query: Now this one: `CCN(C(=O)c1cc(C(C)C)c(O)cc1O)c1ccc(NC(=O)CCCCCCC(=O)NO)cc1`
Result: rule not met

Query: Param item: `CC(C)c1cc(C(=O)Nc2ccc(NC(=O)CCCCCCC(=O)NO)cc2)c(O)cc1O`
Result: rule not met
